Reference for the values: paper PMC4733660

assayed-target: PHD2 (Homo sapiens, UniProt Q9GZT9)
Sequence (Q9GZT9 whole entry): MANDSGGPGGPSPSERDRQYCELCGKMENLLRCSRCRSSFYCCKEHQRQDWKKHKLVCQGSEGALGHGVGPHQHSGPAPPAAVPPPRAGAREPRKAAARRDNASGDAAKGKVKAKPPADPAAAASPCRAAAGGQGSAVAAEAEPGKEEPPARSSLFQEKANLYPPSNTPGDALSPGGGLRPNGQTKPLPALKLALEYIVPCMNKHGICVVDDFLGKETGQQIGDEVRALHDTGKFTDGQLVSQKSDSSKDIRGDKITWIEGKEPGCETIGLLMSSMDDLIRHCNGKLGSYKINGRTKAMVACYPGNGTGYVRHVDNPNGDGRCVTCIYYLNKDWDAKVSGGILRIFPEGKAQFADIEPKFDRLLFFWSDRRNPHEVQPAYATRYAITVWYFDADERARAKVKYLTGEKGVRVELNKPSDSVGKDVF
measurement-protocol: PHD2 fluorescence-based
Type: biochemical
condition-description: HTRF-based assay; enzyme concentration 20 nM; 400 μM compound concentration
Exercise: for every item that follows, state its recorded PHD2 Residual Activity (%).
One number for each entry, in %.

In the examples that follow, each entry is paired with its recorded PHD2 Residual Activity (%).
- O=C(O)c1ccnc(C(=O)O)c1-c1ccccc1: 100
- O=C(O)c1ccnc(C(=O)O)c1/C=C/c1ccccc1: 85
- Nc1c(C(=O)O)ccnc1C(=O)O: 23
- O=C(O)c1ccnc(C(=O)O)c1Oc1ccccc1: 88
- O=C(O)c1ccnc(C(=O)O)c1Nc1ccccc1: 100

Shift focus to the following entry.
**Query** Can you look up the measured PHD2 Residual Activity (%) of O=C(O)c1ccnc(C(=O)O)c1 [Compound 5, 2,4-pyridine dicarboxylic acid, reference compound] for me?
**Result** 22
